Where these numbers come from: paper PMC3880798

TEST_NAME: Plasma pharmacokinetics of OSI-930
Assay type: in vivo, human
ASSAY_CONTEXT: human, plasma, oral, 100 mg, AUCtau, 100 mg once a day (n = 1); day 22, steady state

- COMPOUND: "O=C(Nc1ccc(OC(F)(F)F)cc1)c1sccc1NCc1ccnc2ccccc12 [OSI-930]"
  AUC: "2490 ng·h/mL"

* * *

TEST_NAME: Plasma pharmacokinetics of OSI-930
Type: in vivo, human
ASSAY_CONTEXT: human, plasma, oral, 500 mg, T1/2, 500 mg twice a day (n = 21); day 22, steady state

- RECORD_SMILES: "O=C(Nc1ccc(OC(F)(F)F)cc1)c1sccc1NCc1ccnc2ccccc12"
  half-life, h: 7.11

* * *

TEST_NAME: Plasma pharmacokinetics of OSI-930
Format: in vivo, human
ASSAY_CONTEXT: human, plasma, oral, 400 mg, Tmax, 400 mg once a day (n = 2); day 22, steady state

- RECORD_SMILES: "O=C(Nc1ccc(OC(F)(F)F)cc1)c1sccc1NCc1ccnc2ccccc12"
  Tmax [h]: 4

* * *

TEST_NAME: Plasma pharmacokinetics of OSI-930
Format: in vivo, human
ASSAY_CONTEXT: human, plasma, oral, 200 mg, AUCtau, 200 mg once a day (n = 1); day 22, steady state

- RECORD_SMILES: "O=C(Nc1ccc(OC(F)(F)F)cc1)c1sccc1NCc1ccnc2ccccc12"
  AUC, µg·h/mL: 4.73

* * *

TEST_NAME: Plasma pharmacokinetics of OSI-930
Format: in vivo, human
ASSAY_CONTEXT: human, plasma, oral, 200 mg, Cmax, 200 mg once a day (n = 1); day 22, steady state
MEASUREMENT_NAME: Cmax (ng/mL)

- RECORD_SMILES: "O=C(Nc1ccc(OC(F)(F)F)cc1)c1sccc1NCc1ccnc2ccccc12"
  READING_UNIT: "ng/mL"
  REPORTED_RESULT: 463

* * *

TEST_NAME: Plasma pharmacokinetics of OSI-930
Assay type: in vivo, human
ASSAY_CONTEXT: human, plasma, oral, 100 mg, Tmax, 100 mg once a day (n = 1); day 22, steady state

- RECORD_SMILES: "O=C(Nc1ccc(OC(F)(F)F)cc1)c1sccc1NCc1ccnc2ccccc12"
  Tmax / h: 4

* * *

TEST_NAME: Plasma pharmacokinetics of OSI-930
Type: in vivo, human
ASSAY_CONTEXT: human, plasma, oral, 1600 mg, Cmax, 1,600 mg once a day (n = 3); day 22, steady state

- RECORD_SMILES: "O=C(Nc1ccc(OC(F)(F)F)cc1)c1sccc1NCc1ccnc2ccccc12"
  Cmax (ng/mL): 1070

* * *

TEST_NAME: Plasma pharmacokinetics of OSI-930
Type: in vivo, human
ASSAY_CONTEXT: human, plasma, oral, 400 mg, Cmin, 400 mg once a day (n = 2); day 22, steady state
MEASUREMENT_NAME: concentration at 22 day (ng/mL)

- COMPOUND: "O=C(Nc1ccc(OC(F)(F)F)cc1)c1sccc1NCc1ccnc2ccccc12 [OSI-930]"
  MEASUREMENT_NAME: "concentration at 22 day"
  REPORTED_RESULT: 306

* * *

TEST_NAME: Plasma pharmacokinetics of OSI-930
Format: in vivo, human
ASSAY_CONTEXT: human, plasma, oral, 50 mg, AUCtau, 50 mg once a day (n = 1); day 22, steady state
MEASUREMENT_NAME: AUC (ng·h/mL)

- MOLECULE: "O=C(Nc1ccc(OC(F)(F)F)cc1)c1sccc1NCc1ccnc2ccccc12 [OSI-930]"
  READING_UNIT: "ng·h/mL"
  REPORTED_RESULT: 2590

* * *

TEST_NAME: Plasma pharmacokinetics of OSI-930
Type: in vivo, human
ASSAY_CONTEXT: human, plasma, oral, 400 mg, Cmax, 400 mg once a day (n = 2); day 22, steady state
MEASUREMENT_NAME: Cmax

- COMPOUND: "O=C(Nc1ccc(OC(F)(F)F)cc1)c1sccc1NCc1ccnc2ccccc12 [OSI-930]"
  MEASUREMENT_NAME: "Cmax"
  REPORTED_RESULT: "873 ng/mL"

* * *

TEST_NAME: Plasma pharmacokinetics of OSI-930
Type: in vivo, human
ASSAY_CONTEXT: human, plasma, oral, 50 mg, Cmin, 50 mg once a day (n = 1); day 22, steady state
MEASUREMENT_NAME: concentration at 22 day (ng/mL)

- RECORD_SMILES: "O=C(Nc1ccc(OC(F)(F)F)cc1)c1sccc1NCc1ccnc2ccccc12"
  REPORTED_RESULT: 69.3

* * *

TEST_NAME: Plasma pharmacokinetics of OSI-930
Assay type: in vivo, human
ASSAY_CONTEXT: human, plasma, oral, 600 mg, T1/2, 600 mg twice a day (n = 6); day 22, steady state

- COMPOUND: "O=C(Nc1ccc(OC(F)(F)F)cc1)c1sccc1NCc1ccnc2ccccc12 [OSI-930]"
  half-life [h]: 5.39

* * *

TEST_NAME: Plasma pharmacokinetics of OSI-930
Format: in vivo, human
ASSAY_CONTEXT: human, plasma, oral, 500 mg, AUCtau, 500 mg twice a day (n = 21); day 22, steady state

- MOLECULE: "O=C(Nc1ccc(OC(F)(F)F)cc1)c1sccc1NCc1ccnc2ccccc12 [OSI-930]"
  READING_UNIT: "ng·h/mL"
  AUC: 5760

* * *

TEST_NAME: Plasma pharmacokinetics of OSI-930
Type: in vivo, human
ASSAY_CONTEXT: human, plasma, oral, 600 mg, AUCtau, 600 mg twice a day (n = 6); day 22, steady state

- RECORD_SMILES: "O=C(Nc1ccc(OC(F)(F)F)cc1)c1sccc1NCc1ccnc2ccccc12"
  AUC / ng·h/mL: 11900

* * *

TEST_NAME: Plasma pharmacokinetics of OSI-930
Type: in vivo, human
ASSAY_CONTEXT: human, plasma, oral, 100 mg, T1/2, 100 mg once a day (n = 1); day 22, steady state
MEASUREMENT_NAME: half-life

- RECORD_SMILES: "O=C(Nc1ccc(OC(F)(F)F)cc1)c1sccc1NCc1ccnc2ccccc12"
  MEASUREMENT_NAME: "half-life"
  REPORTED_RESULT: "1110 min"
